- assay remarks: soluble on expression in E. coli; label from the status in PepcDB or PDB records
parameter: soluble on expression in E. coli

In the examples that follow, each entry is paired with its recorded soluble on expression in E. coli.
MGSDKIHHHHHHTACETDNDSNPILNEPDTFTLNTPAYAANNVYDLKNAQTVELTCSQPDYGFPAATTYTVQASFEQDFIEATDESKANYTVLESTSPTAKINVDASELNNALLDLWTAVNGEQAELPTEPVAVYIRLKANITSSGKGVCFSNVIELPNVLISKSTSSLTPPKTMFIVGSMLDTDWKVWKPMAGVYGMDGQFYSMIYFDANSEFKFGTKENEYIGINDNRVTVTDKAGAGVSGSDNFVVENAGWYLFYVKAAVKGDDYQFTITFYPAEVYLFGNTTGGSWAFNDEWKFTVPATKDGNFVSPAMTASGEVRMCFKTDLDWWRTEFTLHDGEIFYRDFNLIDSWTEKGDGYSIQGSAGNVIHLNFTAGTGEKK | not soluble
MGSSHHHHHHSQDMDKNELVQKAKLAEQAERYDDMAACMKSVTEQGAELSNEERNLLSVAYKNVVGARRSSWRVVSSIEQKTEGAEKKQQMAREYREKIETELRDICNDVLSLLEKFLIPNASQAESKVFYLKMKGDYYRYLAEVAAGDDKKGIVDQSQQAYQEAFEISKKEMQPTHPIRLGLALNFSVFYYEILNSPEKACSLAKTAFDEAIAELDTLSEESYKDSTLIMQLLRDNLTLWTSDTQGDEAEAGEGGEN | soluble
GMKPLKEVVGAYLALSDAQRQLVAGEYDEAAANCRRAMEISHTMPPEEAFDHAGFDAFCHAGLAEALAGLRSFDEALHSADKALHYFNRRGELNQDEGKLWISAVYSRALALDGLGRGAEAMPEFKKVVEMIEERKGETPGKERMMEVAIDRIAQLGAS | soluble
MGSDKIHHHHHHSNINPSNGEGRDPLENFNRAMWKINYEVIDPHIFKPVAKGWRDYVPAPIKRSLVNIANNLDEPASFVNRLIEGDGQKAMRHFTRFWINSTFGLAGLIDWASQIKELKLENGNREFGDTLGHYGVPAGSYIMAPGYGPITPRQAVGKVVDSVYPMLSMLATPWMLTKFFVQSIDTRAQFINQEALLTNSADPYISFREAYFQNLRFKVKDGDVSDIQEQLSQEELDQID | not soluble

Turning now to a further record.
Return reported soluble on expression in E. coli. Input sequence: MSLGETFTITKMNVERIKQEERLFCKSCASPVMIKAGQIKIPHFAHEKTMKCAFASEGESEEHLAAKKQIMAWYCYQSIPVEVESYFPEIKRQADIFVNGKAVIEFQRSSISISEMIQRTMDYLSIGLEVHWILGQVVRKEKGRICLSAFQQAFIQSDKKLGYHFWHYSTEREICTLYYHLTFEKGNRFFASEMKFSMKAPFSEWKKKLARIITRHAYVKRDRELERQKICFYYAKFKKHGQFMQKLFNAGYYLHYLPKEIGVDLEEQFLVITPAVEWQFDLWEKFFKGLEKGDTFSECCFFESFQSVVTQILTIWLSPNESLKLGKSYLSYLIGEGVLSTIPDNRYRVKRKMVFTNTRAAHIEGHHHHHH
not soluble
